// provenance: ChEMBL document CHEMBL5137125

- Test system: SH-SY5Y
- procedure text: Cytotoxicity against human SH-SY5Y cells assessed as inhibition of cell growth and measured after 72 hrs resazurin reduction assay
- Type: functional, cell-based
Provide the recorded IC50 for the entries that follow.

In plain terms, `COc1cccc2c1C(=O)c1c(O)c3c(c(O)c1C2=O)C[C@@](O)(C(=O)CO)C[C@@H]3O[C@H]1C[C@H](N)[C@H](O)[C@H](C)O1` has a documented IC50 of 0.04 µM

In plain terms, O=C(OC(Cc1ccc(O)c(O)c1)C(=O)O)C1=Cc2cc(O)c(O)cc2[C@H](c2ccc(O)c(O)c2)[C@H]1C(=O)O[C@@H](Cc1ccc(O)c(O)c1)C(=O)O (stereo not given in full) has a documented IC50 of > 10 µM

In plain terms, `O=C(/C=C/c1ccc(O)c(O)c1)O[C@H](Cc1ccc(O)c(O)c1)C(=O)O` has a documented IC50 of > 10 µM

In plain terms, `COc1cc([C@H]2c3cc(O)c(OC)cc3C=C3C(=O)OC[C@H]4O[C@@](CO)(O[C@H]5O[C@H](COC(=O)/C=C/c6ccc(O[C@@H]7O[C@@H](C)[C@H](O)[C@@H](O)[C@H]7O)cc6)[C@@H](O)[C@H](O)[C@H]5O)[C@@H](OC(=O)[C@@H]32)[C@@H]4O)ccc1O` has a documented IC50 of > 10 µM

In plain terms, `O=C(O[C@H](Cc1ccc(O)c(O)c1)C(=O)O)c1cc(-c2ccc(O)c(O)c2)c2cc(O)c(O)cc2c1` has a documented IC50 of > 10 µM
